Origin of measurements: patent US20230322953A1

- target-system: T1, biotinylated human BCMA-Fc, Avitag recombinant protein (ACRO Biosystems, #BC7-H82F0) (human, UniProt Q02223 1-54, biotinylated)
- T1 construct: extracellular domain; Bought protein; also called human BCMA protein; recombinant human BCMA-ECD-Fc; not shown: Fc of the bought fusion protein; Avitag
- T1 sequence (looked up): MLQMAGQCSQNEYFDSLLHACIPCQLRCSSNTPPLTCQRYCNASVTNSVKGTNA
- assay-remarks: BLI (Octet Red96e), biotinylated BCMA-Fc on SA sensor, VH supernatant, 100 nM, single concentration
Exercise: for every item that follows, state its recorded koff.
Respond with the bare value in s⁻¹.

Data request, read-out koff, for PR004563, PR001046 VH-derived single-domain variant 1046-R2-1A1 (VHH, Tested as VH single domain with Flag and His tags; not shown: Flag and His tags) VHH: EVQLVETGGGLIQPGGSLRLSCAASGFTVYDNYMTWVRQAPGKGLEWVSVIFSGGKTYVADSVKGRFTISRDNAKNTLYLQMNSLRAEDTALYYCARRNYDQTRGTDVFDIWGQGTMVTVSS
0.000259

What value of measured koff is listed for PR004573, PR001046 VH-derived single-domain variant 1046-R2-8B1 (VHH, Tested as VH single domain with Flag and His tags; not shown: Flag and His tags) VHH: EVQLVETGGGLIQPGGSLRLSCAASGFTVSDSYMTWVRQAPGKGLEWVSVIFSGGKTYYADSVKGRFTISRDNAKNTLYLQMNSLRAEDTALYYCARRNYDDTRGTDVFDIWGQGTMVTVSS ?
0.000282

Using the record for PR004572, PR001046 VH-derived single-domain variant 1046-R2-7E7 (VHH, Tested as VH single domain with Flag and His tags; also called PR001046-R2-7E7; not shown: Flag and His tags) VHH: EVQLVETGGGLIQPGGSLRLSCAASGFTVSDSYMTWVRQAPGKGLEWVSVIFSGGKTYVADSVKGRFTISRDNAKNTLYLQMNSLRAEDTALYYCARRNYDDTRGTDVFDIWGQGTMVTVSS , report its koff.
0.000236
